Tested on: Botrytis cinerea
Experiment summary: Fungicidal activity against Botryotinia fuckeliana assessed as growth inhibition at 50 ppm after 48 hr relative to untreated control
Assay type: functional
Measurement context: read-out: GI
Entry flag: yes (1) if inhibition of growth at 50 ppm reaches 5%; no (0) if it does not.

Solved cases below.
N=C1S/C(=C\c2cccc([N+](=O)[O-])c2)C(=O)N1c1nc(-c2ccc([N+](=O)[O-])cc2)cs1 :: no (0)
N=C1SCC(=O)N1c1nc(-c2ccc([N+](=O)[O-])cc2)cs1 :: no (0)

**Query** Is it the case that N=C1S/C(=C\c2ccccc2Cl)C(=O)N1c1nc(-c2ccc([N+](=O)[O-])cc2)cs1 has inhibition of growth at 50 ppm reaching or exceeding 5%?
**Result** yes (1)

**Query** Is it the case that N=C1SCC(=O)N1c1nc(-c2ccc(Cl)cc2)cs1 has inhibition of growth at 50 ppm reaching or exceeding 5%?
**Result** no (0)

**Query** Is it the case that N=C1S/C(=C\c2cccc([N+](=O)[O-])c2)C(=O)N1c1nc(-c2ccc(Cl)cc2)cs1 has inhibition of growth at 50 ppm reaching or exceeding 5%?
**Result** yes (1)

**Query** Is it the case that N=C1S/C(=C\c2ccccc2[N+](=O)[O-])C(=O)N1c1nc(-c2ccccc2)cs1 has inhibition of growth at 50 ppm reaching or exceeding 5%?
**Result** yes (1)

**Query** Is it the case that N=C1S/C(=C\c2ccccc2Cl)C(=O)N1c1nc(-c2ccc(Cl)cc2)cs1 has inhibition of growth at 50 ppm reaching or exceeding 5%?
**Result** no (0)

**Query** Is it the case that N=C1S/C(=C\c2ccccc2Cl)C(=O)N1c1nc(-c2ccccc2)cs1 has inhibition of growth at 50 ppm reaching or exceeding 5%?
**Result** yes (1)

**Query** Is it the case that N=C1S/C(=C\c2cccc([N+](=O)[O-])c2)C(=O)N1c1nc(-c2ccccc2)cs1 has inhibition of growth at 50 ppm reaching or exceeding 5%?
**Result** no (0)

----------
Tested on: Botrytis cinerea
Experiment summary: Fungicidal activity against Botryotinia fuckeliana assessed as growth inhibition at 50 ppm after 48 hr relative to untreated control
Type: functional
Measurement context: read-out: GI
Entry flag: Yes if inhibition of growth at 50 ppm reaches 30%; No if it does not.

N=C1S/C(=C\c2ccccc2)C(=O)N1c1nc(-c2cc(F)c(Cl)cc2Cl)cs1 :: No
N=C1S/C(=C\c2ccccc2[N+](=O)[O-])C(=O)N1c1nc(-c2ccc([N+](=O)[O-])cc2)cs1 :: Yes
N=C1SCC(=O)N1c1nc(-c2ccc(Cl)cc2Cl)cs1 :: No
N=C1S/C(=C\c2ccccc2[N+](=O)[O-])C(=O)N1c1nc(-c2cc(F)c(Cl)cc2Cl)cs1 :: No
N=C1SCC(=O)N1c1nc(-c2cc(F)c(Cl)cc2Cl)cs1 :: Yes

**Query** Is it the case that N=C1S/C(=C\c2ccccc2[N+](=O)[O-])C(=O)N1c1nc(-c2ccc(Cl)cc2)cs1 has inhibition of growth at 50 ppm reaching or exceeding 30%?
**Result** Yes

**Query** Is it the case that N=C1SCC(=O)N1c1nc(-c2ccccc2)cs1 has inhibition of growth at 50 ppm reaching or exceeding 30%?
**Result** No

**Query** Is it the case that N=C1S/C(=C\c2cccc([N+](=O)[O-])c2)C(=O)N1c1nc(-c2cc(F)c(Cl)cc2Cl)cs1 has inhibition of growth at 50 ppm reaching or exceeding 30%?
**Result** No
